Every entry's value here was drawn from patent US4929633A.

molecular target: angiotension-conversion enzyme (ACE) (Homo sapiens, UniProt P12821)
Sequence (P12821 30-1306, species assumed): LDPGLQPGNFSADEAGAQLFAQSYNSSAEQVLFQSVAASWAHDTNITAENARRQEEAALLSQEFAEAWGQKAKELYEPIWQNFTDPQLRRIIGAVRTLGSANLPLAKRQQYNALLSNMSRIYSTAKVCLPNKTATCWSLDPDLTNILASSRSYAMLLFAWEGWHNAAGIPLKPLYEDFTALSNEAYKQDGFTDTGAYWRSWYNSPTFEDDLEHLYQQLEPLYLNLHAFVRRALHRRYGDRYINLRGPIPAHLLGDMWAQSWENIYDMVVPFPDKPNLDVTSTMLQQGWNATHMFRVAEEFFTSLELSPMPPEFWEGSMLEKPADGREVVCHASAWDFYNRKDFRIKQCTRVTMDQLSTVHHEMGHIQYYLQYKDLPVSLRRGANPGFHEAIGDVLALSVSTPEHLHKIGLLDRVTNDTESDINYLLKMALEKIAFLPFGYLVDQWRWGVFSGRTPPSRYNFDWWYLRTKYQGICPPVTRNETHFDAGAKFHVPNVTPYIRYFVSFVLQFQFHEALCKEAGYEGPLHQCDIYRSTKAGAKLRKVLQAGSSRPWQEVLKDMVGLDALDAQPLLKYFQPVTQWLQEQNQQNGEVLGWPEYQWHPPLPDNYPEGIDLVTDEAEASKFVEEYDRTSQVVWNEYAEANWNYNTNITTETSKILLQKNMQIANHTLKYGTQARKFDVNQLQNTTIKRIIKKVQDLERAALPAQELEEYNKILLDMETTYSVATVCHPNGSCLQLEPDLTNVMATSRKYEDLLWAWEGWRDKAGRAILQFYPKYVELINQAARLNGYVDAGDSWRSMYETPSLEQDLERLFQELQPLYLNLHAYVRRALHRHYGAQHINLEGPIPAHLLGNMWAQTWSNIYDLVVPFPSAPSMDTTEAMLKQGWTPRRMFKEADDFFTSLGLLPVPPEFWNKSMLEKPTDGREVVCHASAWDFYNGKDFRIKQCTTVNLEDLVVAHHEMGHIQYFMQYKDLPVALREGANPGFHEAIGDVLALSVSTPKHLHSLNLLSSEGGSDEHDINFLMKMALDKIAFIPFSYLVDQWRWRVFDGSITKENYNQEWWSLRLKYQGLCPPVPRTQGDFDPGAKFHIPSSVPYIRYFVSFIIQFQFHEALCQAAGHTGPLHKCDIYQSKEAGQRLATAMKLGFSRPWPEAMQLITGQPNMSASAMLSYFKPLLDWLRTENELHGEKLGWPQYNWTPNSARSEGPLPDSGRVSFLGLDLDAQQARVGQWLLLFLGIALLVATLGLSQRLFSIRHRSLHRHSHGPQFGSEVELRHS
endpoint: pIC50
// field semantics: pIC50 = negative decimal log of concentration (mol/L)

Input line: State the measured pIC50 (angiotension-conversion enzyme (ACE) (Homo sapiens, UniProt P12821)) of CCCCC[C@H](CC(=O)NO)C(=O)N[C@H](C(=O)N1CCC[C@H]1CO)C(C)C
Output line: 4.42
